Target: Human sodium/glucose co-transporter type 1 (SGLT1) (Homo sapiens (Human))
Sequence (P13866 whole entry): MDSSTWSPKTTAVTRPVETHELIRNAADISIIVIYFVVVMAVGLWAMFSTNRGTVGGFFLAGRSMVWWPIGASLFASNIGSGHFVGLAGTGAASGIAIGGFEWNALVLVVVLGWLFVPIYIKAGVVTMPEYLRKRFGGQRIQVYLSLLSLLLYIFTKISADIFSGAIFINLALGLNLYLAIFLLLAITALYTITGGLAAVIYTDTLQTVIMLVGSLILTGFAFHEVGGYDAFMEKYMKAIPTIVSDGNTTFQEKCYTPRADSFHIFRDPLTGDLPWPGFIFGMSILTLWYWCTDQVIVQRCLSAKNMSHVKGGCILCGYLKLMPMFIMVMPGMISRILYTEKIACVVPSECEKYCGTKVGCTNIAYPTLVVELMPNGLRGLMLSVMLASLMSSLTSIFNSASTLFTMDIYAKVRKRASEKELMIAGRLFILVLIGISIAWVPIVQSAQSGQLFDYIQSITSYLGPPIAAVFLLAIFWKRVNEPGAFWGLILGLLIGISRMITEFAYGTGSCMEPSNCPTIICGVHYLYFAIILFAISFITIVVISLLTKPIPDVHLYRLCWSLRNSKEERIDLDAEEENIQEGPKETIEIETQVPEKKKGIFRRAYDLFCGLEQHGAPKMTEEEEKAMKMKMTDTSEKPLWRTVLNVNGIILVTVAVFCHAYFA
Test: In vitro human SGLT1 inhibition assay (14C-AMG uptake)
Assay type: cell-based
Details: HEK293 cells expressing human HA-SGLT1, 14C-AMG uptake
pIC50: −log10 of the molar value.
reported endpoint: pIC50

Here's what some known entries look like.
>  <entry smiles>
CS[C@H]1O[C@@H](c2ccc(C)c(Cc3ccc(CCCCCNCc4ccccc4)cc3)c2)[C@H](O)[C@@H](O)[C@@H]1O

>  <system tested>
Human sodium/glucose co-transporter type 1 (SGLT1) (Homo sapiens (Human))

>  <pIC50>
> 7.00

$$$$
>  <entry smiles>
CS[C@H]1O[C@@H](c2ccc(C)c(Cc3ccc(CCCC(=O)NC(C)(C)C(=O)N4CCOCC4)cc3)c2)[C@H](O)[C@@H](O)[C@@H]1O

>  <system tested>
Human sodium/glucose co-transporter type 1 (SGLT1) (Homo sapiens (Human))

>  <pIC50>
> 8.00

$$$$

Next up:
Query: Please look up its pIC50: CS[C@H]1O[C@@H](c2ccc(C)c(Cc3ccc(CCCCNC(C)(C)CO)cc3)c2)[C@H](O)[C@@H](O)[C@@H]1O
Reply: > 7.00

====

Biological target: Human sodium/glucose co-transporter type 1 (SGLT1) (Homo sapiens (Human))
Experiment: In vitro human SGLT1 inhibition assay (14C-AMG uptake)
Conditions: HEK293 cells expressing human HA-SGLT1, 14C-AMG uptake
Each record here notes measured IC50.

>  <compound>
CS[C@H]1O[C@@H](c2ccc(C)c(Cc3ccc(CCCC(=O)NC(C)(C)C(=O)N4CCC(C)CC4)cc3)c2)[C@H](O)[C@@H](O)[C@@H]1O

>  <readout value>
< 10 nM

$$$$
>  <compound>
CS[C@H]1O[C@@H](c2ccc(C)c(Cc3ccc(CCCC(=O)NCC(C)(C)C(=O)NC4CCNCC4)cc3)c2)[C@H](O)[C@@H](O)[C@@H]1O

>  <readout value>
< 100 nM

$$$$
>  <compound>
CCOc1ccc(Cc2cc([C@@H]3O[C@H](SC)[C@@H](O)[C@H](O)[C@H]3O)ccc2C)cc1

>  <readout value>
< 100 nM

$$$$
>  <compound>
CS[C@H]1O[C@@H](c2ccc(C)c(Cc3ccc(/C=C/C[C@H](N)C(=O)O)cc3)c2)[C@H](O)[C@@H](O)[C@@H]1O

>  <readout value>
< 100 nM

$$$$
>  <compound>
CS[C@H]1O[C@@H](c2ccc(C)c(Cc3ccc(OCCCC(=O)NCC(C)(C)C(=O)N4CCN(C)CC4)cc3)c2)[C@H](O)[C@@H](O)[C@@H]1O

>  <readout value>
< 10 nM

$$$$

Query: Please look up its IC50: CS[C@H]1OC(c2ccc(C)c(Cc3ccc(CCCCCl)cc3)c2)[C@H](O)[C@@H](O)[C@@H]1O (stereo partly shown)
Reply: < 10 nM

Query: Please look up its IC50: CS[C@H]1O[C@@H](c2ccc(Cl)c(Cc3ccc(OCC(=O)NC(C)(C)C(=O)N4CCN(C)CC4)cc3)c2)[C@H](O)[C@@H](O)[C@@H]1O
Reply: < 100 nM

Query: Please look up its IC50: CS[C@H]1O[C@@H](c2ccc(C)c(Cc3ccc(OCCCC(N)=O)cc3)c2)[C@H](O)[C@@H](O)[C@@H]1O
Reply: < 100 nM

Query: Please look up its IC50: CS[C@H]1O[C@@H](c2ccc(Cl)c(Cc3ccc(OCCCNC(=N)N)cc3)c2)[C@H](O)[C@@H](O)[C@@H]1O
Reply: < 10 nM

Query: Please look up its IC50: CS[C@H]1O[C@@H](c2ccc(C)c(Cc3ccc(OCC(O)CO)cc3)c2)[C@H](O)[C@@H](O)[C@@H]1O (stereo partly shown)
Reply: < 100 nM
